Cited source for all entries: ChEMBL document CHEMBL1201862

experimental_system: DNA repair protein RAD52 homolog (Homo sapiens)
Sequence (P43351 whole entry): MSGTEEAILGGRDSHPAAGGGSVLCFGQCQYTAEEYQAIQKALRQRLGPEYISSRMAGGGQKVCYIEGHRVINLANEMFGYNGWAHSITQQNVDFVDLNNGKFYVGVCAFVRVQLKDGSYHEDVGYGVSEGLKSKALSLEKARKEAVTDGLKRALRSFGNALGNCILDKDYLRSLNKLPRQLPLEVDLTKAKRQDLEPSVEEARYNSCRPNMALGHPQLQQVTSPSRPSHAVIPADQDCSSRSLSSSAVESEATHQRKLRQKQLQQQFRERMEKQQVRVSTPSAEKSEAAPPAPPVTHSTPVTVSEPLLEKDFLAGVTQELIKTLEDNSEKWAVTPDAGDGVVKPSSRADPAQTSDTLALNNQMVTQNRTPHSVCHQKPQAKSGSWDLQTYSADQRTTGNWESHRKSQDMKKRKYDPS
Format: functional, biochemical
Active and inactive are the calls of the source.
reported_metric: AC50

Consider the worked cases shown below.
| smiles_repr | reported_metric | assay_value |
| --- | --- | --- |
| COc1cccc(-c2cc3nc(NCCN4CCCC4)n(C)c(=O)c3s2)c1 | AC50 | 5.5 µM (active) |
| CCCCCCCCCCCCOC(=O)C[N+](C)(C)C | AC50 | 26.4 µM (active) |
| Cc1cccc(OCC(=O)Nc2ccc3c(c2)nc(CN2CCCCC2)n3C)c1 | AC50 | 20 µM (active) |

Give a short answer stating reported AC50 for `CCN1CCN(c2ccc(N)cc2)CC1` .
1.47 µM (active)

Give the reported AC50 for this compound. `CCN(CC)CCCNC(=O)c1cc2c(-c3cccc(OC)c3)nn(C)c2s1`
6.07 µM (active)

Assign AC50 to the following record: `CCN1CCN(c2ccc(N)cc2C)CC1`
0.278 µM (active)

---

experimental_system: UniProt P9WHJ3
experiment_summary: Fluorescence Cell-Free Homogeneous Dose Retest to Identify Inhibitors of RecA-Intein Splicing Activity. [Related pubchem assays (depositor defined):AID2097, AID2223, AID489010, AID492950]
Assay type: functional
Calls of active or inactive are those of the source.
Outcome (select one): yes (1) (active), no (0) (inactive)

Below, 2 molecules whose answers are already recorded.
| molecule | discrete_label |
| --- | --- |
| CCCc1nn(C)c2c1C(c1ccncc1)C(C#N)=C(N)O2 (stereo not drawn) | yes (1) |
| Cc1nnc(Sc2cc(NCCCO)c([N+](=O)[O-])c3nonc23)s1 | yes (1) |

Hi, sorry to bother you, what did the test record for `COC(=O)c1sc(-c2cccs2)cc1NC(=O)/C=C/C(=O)O` ?
yes (1)

Call for entry Cc1nn(-c2ccccc2)c2c1C1(C(=O)N(C(C)C)c3ccccc31)C(C#N)=C(N)O2 (stereo not drawn) :
yes (1)

---

experimental_system: Aminopeptidase N (Plasmodium falciparum FcB1/Columbia, UniProt O96935)
Sequence (O96935 whole entry): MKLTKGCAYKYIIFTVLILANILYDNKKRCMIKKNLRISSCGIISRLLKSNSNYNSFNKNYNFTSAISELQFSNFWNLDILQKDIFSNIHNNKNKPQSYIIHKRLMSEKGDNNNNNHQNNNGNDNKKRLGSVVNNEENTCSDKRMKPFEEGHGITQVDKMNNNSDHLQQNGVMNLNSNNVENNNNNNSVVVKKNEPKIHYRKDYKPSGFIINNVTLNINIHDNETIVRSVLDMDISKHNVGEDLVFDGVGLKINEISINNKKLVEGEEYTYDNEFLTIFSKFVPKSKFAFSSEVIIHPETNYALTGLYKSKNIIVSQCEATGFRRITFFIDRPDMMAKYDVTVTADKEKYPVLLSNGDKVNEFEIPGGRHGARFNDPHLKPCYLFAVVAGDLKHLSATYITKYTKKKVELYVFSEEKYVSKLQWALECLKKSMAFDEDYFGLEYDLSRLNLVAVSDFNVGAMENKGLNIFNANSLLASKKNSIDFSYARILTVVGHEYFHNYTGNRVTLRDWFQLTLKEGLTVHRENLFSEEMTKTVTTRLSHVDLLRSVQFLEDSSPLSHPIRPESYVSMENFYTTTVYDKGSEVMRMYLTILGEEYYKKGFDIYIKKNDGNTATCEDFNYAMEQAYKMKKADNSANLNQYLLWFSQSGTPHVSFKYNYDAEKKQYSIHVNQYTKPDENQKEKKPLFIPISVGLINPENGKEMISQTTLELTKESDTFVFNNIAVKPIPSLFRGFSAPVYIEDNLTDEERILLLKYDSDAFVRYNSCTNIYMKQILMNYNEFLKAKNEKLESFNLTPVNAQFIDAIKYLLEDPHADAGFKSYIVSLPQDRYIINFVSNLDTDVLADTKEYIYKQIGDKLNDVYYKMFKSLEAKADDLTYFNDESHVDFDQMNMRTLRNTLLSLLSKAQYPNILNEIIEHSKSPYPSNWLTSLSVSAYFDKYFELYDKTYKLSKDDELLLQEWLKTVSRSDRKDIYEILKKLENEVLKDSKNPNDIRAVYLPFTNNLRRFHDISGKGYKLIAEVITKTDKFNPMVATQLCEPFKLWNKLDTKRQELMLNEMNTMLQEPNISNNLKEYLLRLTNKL
experiment_summary: malaria alanyl aminopeptidase activity blockers – biochemical, fluorogenic H-Leu-NHMec substrate, 1536-well (AID 1445)
Set-up: species or system Plasmodium falciparum 3D7, 3D7
Activity calls are given as the source filed them.
Recorded IC50, one value per entry.

Some compounds with known IC50 results, for comparison:
| compound | experimental_system | IC50 |
| --- | --- | --- |
| COc1cc(OC)c(NC(=O)c2ccc3c(SCC(=O)O)c4c(nc3c2)CCCC4)cc1Cl | Aminopeptidase N (Plasmodium falciparum FcB1/Columbia, UniProt O96935) | 31.6 µM (active) |
| COc1ccc(/C=N/NC2=NC(=O)C(CC(=O)O)S2)cc1OCc1ccc(Cl)cc1 (stereo not given) | Aminopeptidase N (Plasmodium falciparum FcB1/Columbia, UniProt O96935) | 66.7 µM (active) |
| CS(=O)(=O)Nc1nc2n(n1)C(c1ccccc1)C=C(c1ccc(Br)cc1)N2 (stereo not given) | Aminopeptidase N (Plasmodium falciparum FcB1/Columbia, UniProt O96935) | 45.3 µM (active) |
| CCOc1cc(/C=N/NC(=O)c2cccs2)cc([N+](=O)[O-])c1O | Aminopeptidase N (Plasmodium falciparum FcB1/Columbia, UniProt O96935) | 103 µM (active) |

Consider the additional compound presented here.
Assign IC50 to the following record: `O=C(N/N=C/c1ccc(-c2ccc(S(=O)(=O)Nc3ncccn3)cc2)o1)c1cc2ccccc2cc1O`
42.3 µM (active)

---

experimental_system: Fatty acid synthase (Homo sapiens, UniProt P49327)
Sequence (P49327 whole entry): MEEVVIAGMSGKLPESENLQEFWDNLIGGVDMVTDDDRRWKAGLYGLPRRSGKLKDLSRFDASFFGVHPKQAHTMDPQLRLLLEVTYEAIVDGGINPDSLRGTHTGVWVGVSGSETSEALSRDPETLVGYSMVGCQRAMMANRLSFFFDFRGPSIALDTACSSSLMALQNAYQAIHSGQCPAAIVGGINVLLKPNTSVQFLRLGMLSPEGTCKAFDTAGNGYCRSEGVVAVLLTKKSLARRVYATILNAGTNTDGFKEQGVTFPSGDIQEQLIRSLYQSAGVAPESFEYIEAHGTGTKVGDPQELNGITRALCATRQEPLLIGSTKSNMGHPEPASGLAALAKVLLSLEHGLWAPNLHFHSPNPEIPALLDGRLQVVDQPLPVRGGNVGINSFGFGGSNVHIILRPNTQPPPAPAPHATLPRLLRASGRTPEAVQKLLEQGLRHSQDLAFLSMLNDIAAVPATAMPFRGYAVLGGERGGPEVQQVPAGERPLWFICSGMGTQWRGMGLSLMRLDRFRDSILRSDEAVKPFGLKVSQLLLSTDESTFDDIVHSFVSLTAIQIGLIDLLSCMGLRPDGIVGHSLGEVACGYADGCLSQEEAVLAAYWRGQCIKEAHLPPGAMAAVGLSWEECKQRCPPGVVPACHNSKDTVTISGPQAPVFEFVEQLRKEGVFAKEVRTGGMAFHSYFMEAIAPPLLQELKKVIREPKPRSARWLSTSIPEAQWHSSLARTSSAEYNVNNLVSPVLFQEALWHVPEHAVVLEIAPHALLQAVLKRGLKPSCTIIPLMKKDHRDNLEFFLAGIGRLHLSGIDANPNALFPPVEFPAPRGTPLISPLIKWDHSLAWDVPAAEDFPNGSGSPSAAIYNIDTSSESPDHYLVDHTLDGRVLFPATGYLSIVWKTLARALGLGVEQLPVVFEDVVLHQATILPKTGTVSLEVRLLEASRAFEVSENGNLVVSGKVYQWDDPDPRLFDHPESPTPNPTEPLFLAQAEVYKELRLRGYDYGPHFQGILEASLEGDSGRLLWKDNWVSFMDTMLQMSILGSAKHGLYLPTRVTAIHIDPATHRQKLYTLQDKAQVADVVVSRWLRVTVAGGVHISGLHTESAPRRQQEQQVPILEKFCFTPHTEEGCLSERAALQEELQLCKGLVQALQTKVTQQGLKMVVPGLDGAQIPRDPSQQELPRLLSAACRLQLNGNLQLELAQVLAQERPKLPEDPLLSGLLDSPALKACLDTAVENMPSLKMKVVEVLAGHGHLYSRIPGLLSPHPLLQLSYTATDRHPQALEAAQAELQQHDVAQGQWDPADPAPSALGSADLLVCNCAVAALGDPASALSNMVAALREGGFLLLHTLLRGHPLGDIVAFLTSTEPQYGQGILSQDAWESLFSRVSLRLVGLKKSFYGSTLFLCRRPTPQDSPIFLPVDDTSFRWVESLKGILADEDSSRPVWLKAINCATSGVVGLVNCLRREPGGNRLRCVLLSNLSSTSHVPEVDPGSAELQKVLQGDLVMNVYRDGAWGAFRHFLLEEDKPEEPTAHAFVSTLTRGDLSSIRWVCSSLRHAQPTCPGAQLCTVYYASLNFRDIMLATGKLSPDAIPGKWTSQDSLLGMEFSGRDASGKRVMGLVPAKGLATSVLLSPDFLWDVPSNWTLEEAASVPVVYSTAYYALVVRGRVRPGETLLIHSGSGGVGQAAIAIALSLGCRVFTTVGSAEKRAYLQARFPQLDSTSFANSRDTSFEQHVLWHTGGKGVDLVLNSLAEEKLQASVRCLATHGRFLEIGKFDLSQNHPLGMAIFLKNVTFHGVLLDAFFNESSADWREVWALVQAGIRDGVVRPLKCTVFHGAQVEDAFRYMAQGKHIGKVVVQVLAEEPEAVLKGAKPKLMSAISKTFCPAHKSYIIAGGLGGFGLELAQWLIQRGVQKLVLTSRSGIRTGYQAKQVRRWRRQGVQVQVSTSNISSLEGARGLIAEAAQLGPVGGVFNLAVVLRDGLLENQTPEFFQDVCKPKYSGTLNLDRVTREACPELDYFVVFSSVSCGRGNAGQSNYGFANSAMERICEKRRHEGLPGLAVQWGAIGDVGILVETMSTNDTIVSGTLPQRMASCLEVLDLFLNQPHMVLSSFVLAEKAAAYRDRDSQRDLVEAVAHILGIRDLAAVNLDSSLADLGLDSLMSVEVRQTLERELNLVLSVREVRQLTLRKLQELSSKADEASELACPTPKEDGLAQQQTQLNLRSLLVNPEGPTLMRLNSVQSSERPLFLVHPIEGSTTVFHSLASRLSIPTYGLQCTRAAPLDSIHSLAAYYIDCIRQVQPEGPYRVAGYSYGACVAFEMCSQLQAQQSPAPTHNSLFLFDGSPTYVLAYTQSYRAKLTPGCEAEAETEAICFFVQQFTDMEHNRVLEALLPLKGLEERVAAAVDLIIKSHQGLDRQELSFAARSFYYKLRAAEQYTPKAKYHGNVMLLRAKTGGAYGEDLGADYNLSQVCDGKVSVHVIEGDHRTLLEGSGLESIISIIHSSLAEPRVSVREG
experiment_summary: inhibition of human FAS-TE enzyme activity – biochemical, endpoint fluorescence intensity, uHTS hits, dose response (AID 624327);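 note: fluorescence from hydrolysis of an O-methyl fluorescein acyl ester substrate by the enzyme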
Type: functional
Active and inactive are the calls of the source.
reported_metric: IC50

Past entries and their recorded results:
| compound | experimental_system | IC50 |
| --- | --- | --- |
| Cc1nnc(Sc2cc(NCCCO)c([N+](=O)[O-])c3nonc23)s1 | Fatty acid synthase (Homo sapiens, UniProt P49327) | 3.78 µM (active) |
| CCOc1ccccc1NC(=O)c1nc(S(=O)(=O)Cc2ccccc2)ncc1Cl | Fatty acid synthase (Homo sapiens, UniProt P49327) | 7.85 µM (active) |
| Cn1c(=O)c2cc3c(nc2n(C)c1=O)CC(c1ccccc1)CC3=O (stereo unspecified) | Fatty acid synthase (Homo sapiens, UniProt P49327) | 10.5 µM (active) |
| COc1ccc(CNC(=O)CC2C[C@H](C(=O)N3CCOCC3)[C@@]3(CCC4CCCC4)c4[nH]c5ccccc5c4CCN3C2=O)cc1OC (stereo partly specified) | Fatty acid synthase (Homo sapiens, UniProt P49327) | 3.67 µM (active) |

Specify IC50 for `Cc1ccc(NC(=O)c2cc(S(=O)(=O)N(C)C)ccc2N2CCCC2)cc1F` and stop.
13.3 µM (active)

Determine its reported IC50: `CC(C)c1ccc(/C=N/Nc2cc(N3CCOCC3)nc(N3CCOCC3)n2)cc1`
0.752 µM (active)

---

experimental_system: Heat shock factor protein 1 (Mus musculus, UniProt P38532)
Sequence (P38532 whole entry): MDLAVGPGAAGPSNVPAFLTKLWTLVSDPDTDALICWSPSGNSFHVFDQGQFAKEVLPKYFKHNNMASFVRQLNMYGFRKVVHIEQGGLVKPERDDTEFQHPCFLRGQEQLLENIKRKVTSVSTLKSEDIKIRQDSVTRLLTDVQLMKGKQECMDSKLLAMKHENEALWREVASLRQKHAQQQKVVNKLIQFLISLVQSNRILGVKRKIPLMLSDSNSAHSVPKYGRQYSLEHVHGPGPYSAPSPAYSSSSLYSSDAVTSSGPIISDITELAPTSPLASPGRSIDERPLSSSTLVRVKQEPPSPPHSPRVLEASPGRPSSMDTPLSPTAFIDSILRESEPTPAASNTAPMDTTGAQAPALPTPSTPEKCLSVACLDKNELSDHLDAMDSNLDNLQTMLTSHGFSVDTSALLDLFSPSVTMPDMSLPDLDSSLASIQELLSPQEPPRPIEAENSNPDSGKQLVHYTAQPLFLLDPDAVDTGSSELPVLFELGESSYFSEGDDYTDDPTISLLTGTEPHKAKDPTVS
experiment_summary: enhancement of HSF1-driven luciferase signal – cell-based, NIH3T3, luminescence, dose retest, confirmation (AID 435004);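 note: stress induced by proteasome inhibitor MG132 added 30 min after compound; luciferase reporter driven by HSF1 response element in NIH3T3 cells; actives raise luminescence as potentiators of the MG132 stress response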
Type: functional
The source made the active and inactive calls.
Below, each of the molecules is paired with its reported EC50 value.

| smiles_repr | experimental_system | EC50 |
| --- | --- | --- |
| CN(c1ccccc1)c1ccc(/C=C/[N+](=O)[O-])cc1 | Heat shock factor protein 1 (Mus musculus, UniProt P38532) | 5.04 µM (inconclusive) |
| Cc1noc(NS(=O)(=O)c2ccc(NC(=O)c3oc4ccc(F)cc4c3C)cc2)c1C | Heat shock factor protein 1 (Mus musculus, UniProt P38532) | > 260 µM (inactive) |
| O=c1/c(=C/c2ccccc2)sc2nnc(-c3cccs3)n12 | Heat shock factor protein 1 (Mus musculus, UniProt P38532) | 23.3 µM (active) |
| Sc1nc(-c2ccc(Br)cc2)cn1CCc1ccccc1 | Heat shock factor protein 1 (Mus musculus, UniProt P38532) | > 260 µM (inactive) |
| Cc1ccc(O)c(NC(=O)Cc2ccc3ccccc3c2)c1 | Heat shock factor protein 1 (Mus musculus, UniProt P38532) | 7.7 µM (active) |

Would you kindly look at the next entry?
Please report the measured EC50 for `CCCCc1ccc(NS(=O)(=O)c2c(C)n(C)c(=O)n(C)c2=O)cc1`
> 260 µM (inactive)

---

experiment_summary: P. falciparum Dd2 growth inhibitors, dose response, SYBR Green, cherry-picked samples (AID 1159567)
Type: functional, cell-based
Active and inactive are the calls of the source.
AC50 values for the compounds below.

Some compounds with recorded AC50:
| smiles_repr | AC50 |
| --- | --- |
| COc1ccc(NC(=O)Nc2cccc3c2O[C@H](CN(C)Cc2ccc(-c4ccccc4)cc2)[C@@H](C)CN([C@@H](C)CO)C3=O)cc1 | 3.25 µM (active) |
| C[C@@H]1CN([C@H](C)CO)S(=O)(=O)c2ccc(-c3cccc(C(=O)N(C)C)c3)cc2O[C@H]1CN(C)Cc1ccc2c(c1)OCO2 | 2.57 µM (active) |
| COc1ccc(C#Cc2ccc3c(c2)O[C@@H](CN(C)S(=O)(=O)c2ccccc2F)[C@@H](C)CN([C@H](C)CO)S3(=O)=O)cc1 | 1.23 µM (active) |

Could you now consider this next compound?
Note down AC50 recorded for `OC[C@@H]1Nc2ccc(C#Cc3ccccc3)cc2[C@@H]2[C@H]1CCN2Cc1nccs1`
2.95 µM (active)

---

experimental_system: Cysteine protease ATG4B (Homo sapiens);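 note: Fluorescence-based dose-response confirmation assay measuring inhibition of ATG4B activity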
Sequence (Q9Y4P1 whole entry): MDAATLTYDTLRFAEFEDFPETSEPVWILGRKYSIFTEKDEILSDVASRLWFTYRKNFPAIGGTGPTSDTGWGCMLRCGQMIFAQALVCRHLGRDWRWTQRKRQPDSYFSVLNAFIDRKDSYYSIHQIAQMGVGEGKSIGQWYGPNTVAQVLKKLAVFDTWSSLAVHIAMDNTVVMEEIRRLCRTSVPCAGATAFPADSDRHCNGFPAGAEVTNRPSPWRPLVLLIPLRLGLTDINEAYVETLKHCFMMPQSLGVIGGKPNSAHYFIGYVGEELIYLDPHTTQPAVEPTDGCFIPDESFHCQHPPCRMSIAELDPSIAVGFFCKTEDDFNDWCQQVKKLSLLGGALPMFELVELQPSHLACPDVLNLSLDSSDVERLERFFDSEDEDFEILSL
Assay type: functional
Calls of active or inactive are those of the source.
Parameter: IC50. Scope: all listed entries.

Determine its reported IC50: `CCCCCCCCCCCCCCCC[n+]1ccccc1`
7.14 µM (active)

Return the recorded IC50 value; entry: `O=C(N/N=C/c1ccc(-c2ccc(S(=O)(=O)Nc3ncccn3)cc2)o1)c1cc2ccccc2cc1O`
5.98 µM (active)

Return the recorded IC50 value; entry: `CC(C)(C)c1ccccc1/N=C/c1ccc2ccccc2n1`
14.2 µM (active)

State, in one line, measured IC50 of `Nc1nn(-c2ccccc2)c(N)c1N=Nc1ccccc1`
11.9 µM (active)
